System: Peptostreptococcus intermedius A21881
PROCEDURE_SUMMARY: MIC, serial two-fold dilution method (anaerobic)
Assay type: cell-based
CONDITION_DESCRIPTION: Peptostreptococcus intermedius A21881; GAM agar medium; inoculum 10^7-10^8; read-out: minimum inhibitory concentration (MIC)
Consider the following compounds; for each one, report its MIC.
Write the answer as a number in µg/mL, unit excluded.

Query block: Looking for the measured MIC of `O=C(N[C@H](CO)[C@H](O)c1ccc([N+](=O)[O-])cc1)C(Cl)Cl` , can you help?
Result block: 3.1

Query block: Looking for the measured MIC of `CCC[C@@H]1C[C@@H](C(=O)N[C@@H]([C@H]2O[C@H](SC)[C@H](O)[C@@H](O)[C@H]2O)[C@H](C)Cl)N(C)C1` , can you help?
Result block: 0.2

Query block: Looking for the measured MIC of `CC1(C)S[C@@H]2[C@H](NC(=O)[C@H](N)c3ccccc3)C(=O)N2[C@H]1C(=O)O` , can you help?
Result block: 0.1

Query block: Looking for the measured MIC of `CC[C@H]1OC(=O)[C@H](C)[C@@H](O[C@H]2C[C@@](C)(OC)[C@@H](O)[C@H](C)O2)[C@H](C)[C@@H](O[C@@H]2O[C@H](C)C[C@H](N(C)C)[C@H]2O)[C@](C)(O)C[C@@H](C)C(=O)[C@H](C)[C@@H](O)[C@]1(C)O` , can you help?
Result block: 0.4
